# System: DU-145
# method description: Antiproliferative activity against human DU145 cells
# Format: functional, cell-based
In this section we review reported IC50 values for a set of compounds.

# smiles input, censor symbol, IC50 / µM
data = [
    ("COc1c(C)c2c(c(O)c1C/C=C(\\C)CCC(=O)N[C@H](Cc1c[nH]c3ccccc13)C(=O)NC[C@H]1O[C@@H](n3cnc4c(N)ncnc43)[C@H](O)[C@@H]1O)C(=O)OC2", ">", 100),
    ("COc1c(C)c2c(c(O)c1C/C=C(\\C)CCC(=O)OC[C@H]1O[C@@H](n3cnc4c(N)ncnc43)[C@H](O)[C@@H]1O)C(=O)OC2", "=", 5.8),
    ("COc1c(C)c2c(c(O)c1C/C=C(\\C)CCC(=O)N[C@H](Cc1ccccc1)C(=O)O)C(=O)OC2", "=", 10),
]
